// reported EC resulting in A450 0.2 per item
Molecular target: tetanus neurotoxin (TeNT), authentic tetanus holotoxin (Clostridium tetani, UniProt P04958 2-1315)
Sequence (P04958 2-457 limits assumed, chain 1 of 2): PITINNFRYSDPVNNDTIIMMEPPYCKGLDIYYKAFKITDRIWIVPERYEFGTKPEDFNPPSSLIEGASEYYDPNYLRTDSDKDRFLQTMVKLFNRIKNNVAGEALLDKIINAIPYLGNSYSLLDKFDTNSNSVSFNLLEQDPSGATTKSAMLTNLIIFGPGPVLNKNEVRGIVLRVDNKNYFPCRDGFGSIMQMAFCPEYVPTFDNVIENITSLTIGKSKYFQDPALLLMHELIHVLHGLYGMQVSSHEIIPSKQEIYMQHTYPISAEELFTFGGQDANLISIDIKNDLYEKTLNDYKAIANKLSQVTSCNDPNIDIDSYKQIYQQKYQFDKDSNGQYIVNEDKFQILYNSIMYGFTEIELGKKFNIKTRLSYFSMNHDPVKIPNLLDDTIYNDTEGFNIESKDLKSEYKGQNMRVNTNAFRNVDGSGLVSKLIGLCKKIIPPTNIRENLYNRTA
Sequence (P04958 458-1315 limits assumed, chain 2 of 2): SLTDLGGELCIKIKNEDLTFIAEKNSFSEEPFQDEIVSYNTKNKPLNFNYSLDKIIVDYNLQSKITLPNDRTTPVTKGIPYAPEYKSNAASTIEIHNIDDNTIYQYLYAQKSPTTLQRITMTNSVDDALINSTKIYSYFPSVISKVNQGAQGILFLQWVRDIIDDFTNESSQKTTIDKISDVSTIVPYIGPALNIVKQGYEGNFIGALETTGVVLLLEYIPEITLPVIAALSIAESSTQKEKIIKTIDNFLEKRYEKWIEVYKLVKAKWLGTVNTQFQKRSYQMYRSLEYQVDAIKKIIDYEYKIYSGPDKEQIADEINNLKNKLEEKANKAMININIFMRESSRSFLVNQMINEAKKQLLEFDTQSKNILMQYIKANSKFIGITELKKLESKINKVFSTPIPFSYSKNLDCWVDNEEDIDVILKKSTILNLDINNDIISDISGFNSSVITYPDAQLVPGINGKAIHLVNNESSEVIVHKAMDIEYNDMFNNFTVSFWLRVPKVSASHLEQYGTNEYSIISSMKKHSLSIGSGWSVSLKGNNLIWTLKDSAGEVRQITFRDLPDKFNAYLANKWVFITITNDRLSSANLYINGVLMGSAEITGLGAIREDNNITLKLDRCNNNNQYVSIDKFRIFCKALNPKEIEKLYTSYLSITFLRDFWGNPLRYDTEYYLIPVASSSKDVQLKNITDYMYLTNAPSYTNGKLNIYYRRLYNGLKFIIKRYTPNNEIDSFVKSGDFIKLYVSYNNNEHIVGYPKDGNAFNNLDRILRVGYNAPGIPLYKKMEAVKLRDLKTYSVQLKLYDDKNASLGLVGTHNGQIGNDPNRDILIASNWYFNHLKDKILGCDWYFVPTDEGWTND
Assay: ELISA, TeNT captured with cAb-TT2, biotinylated binder

{"columns": ["BINDER", "UNIT TEXT", "EC resulting in A450 0.2"],
 "data": [
  ["SVT03L (VHH) VHH: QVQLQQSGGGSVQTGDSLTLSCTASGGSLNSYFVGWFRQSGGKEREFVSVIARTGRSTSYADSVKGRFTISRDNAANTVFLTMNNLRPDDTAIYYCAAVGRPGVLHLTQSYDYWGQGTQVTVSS", "ng/mL", 2.8],
  ["SVT02L (VHH) VHH: QVQLQQSGGGSVQAGGSLRLSCVGPQRTFSTYGMGWFRQAPGKEREFVAGINYKGDTTYYADSVKGRFTISRDNAKNTLYLQMDSLKPEDRAVYQCARKGGLGGDYRDAGQYRYWGQGTQVTVSS", "ng/mL", 11],
  ["SVT08L (VHH) VHH: QVQLQESGGGSVQAGGSLRLSCTASEFSYNDYTIAWFRRAAGKGRVEDGEGVASITTSYDRAYDNRIHYGDSVKGRFTISRDNAKNTVYLQMTNLNPSDTAVYYCGLDITPPGGIGASLTEGFLFDYWGQGTQVTVSS", "ng/mL", 0.52],
  ["SVT25L (VHH) VHH: QVQLQESGGGLVQAGGSLRLSCAASGRTISVYAMGWFRQAPGKQREFVAAISRSDNTYYTDSVKGRFTISRDNVKNTLYLQMNSLKPEETAVYYCAADPNLMYETKWKYRALEAWGQGTLVTVSS", "ng/mL", 84]
]}
